System: NOD2 cellular signaling
Test: NOD2 signaling assay in HEK-Blue cells (NFkB-SEAP reporter, L18-MDP stimulated)
Type: cell-based
Conditions: HEK-Blue cells expressing human NOD2, L18-MDP stimulation, 8 h; NI = no inhibition observed; read-out: EC50 HEK Blue RIPK2
Protocol: HEK-Blue cells expressing human NOD2 and NFkB-SAEP reporter (Invivogen) are seeded into 96 well clear plates at 7.5×10^3 cells per well in 100 μL of DMEM media supplemented with 10% FBS and 1% antibiotic-antimycotic mix. Cells are allowed to attach for 48 h in 5% CO2 tissue culture incubator at 37° C. […] Cells are incubated in 5% CO2 tissue culture incubator at 37° C. for 8 h and absorbance, corresponding to the SEAP in the media, is determined in Wallac3V plate reader (Perkin Elmer). […]
pEC50: −log10 of the molar value.
metric: pEC50

| compound | metric | measured.result |
| --- | --- | --- |
| Cn1c(=O)c(-c2ccccc2Cl)cc2cnc(Nc3cccc(S(C)(=O)=O)c3)cc21 [UH15_32] | pEC50 | 6.39 |
| Cn1c(=O)c(-c2ccccc2Cl)cc2cnc(Nc3ccccn3)nc21 [UH15_35] | pEC50 | 6.02 |
| CS(=O)(=O)c1cccc(Nc2ncc3cc(-c4ccccn4)ccc3n2)c1 [UH15PN5] | pEC50 | 5.71 |

[I] Cn1c(=O)c(-c2ccccc2Cl)cc2cnc(Nc3cccc(N4CCNCC4)c3)cc21 [UH15_25]
[II] Cn1c(=O)c(-c2ccccc2Cl)cc2cnc(Nc3cccc(N4CCNCC4)c3)nc21 [UH15_33]
[III] CS(=O)(=O)c1cccc(Nc2ncc3cc(-c4cccnc4)ccc3n2)c1 [UH15PN6]
[IV] Cn1c(=O)c(-c2ccccc2Cl)cc2cnc(Nc3cccnc3)nc21 [UH15_34]
[V] CCN(CC)CCOc1ccc(Nc2ncc3cc(-c4ccccc4Cl)ccc3n2)cc1 [UH15PN1]
q: With regard to pEC50, arrange the entries in ascending order, please. Rank the items, then write their labels in that order.
a: III, V, I, IV, II

* * *

For reference, IC50 measured on UniProtKB Q04771:
metric: IC50 (nM)

| compound | unit.annotation | IC50 |
| --- | --- | --- |
| Cn1c(=O)c(-c2ccccc2Cl)cc2cnc(Nc3cccnc3)nc21 [UH15_34] | nM | 1100 |

[1] CCN(CC)CCOc1ccc(Nc2ncc3cc(-c4ccccc4Cl)ccc3n2)cc1 [UH15PN1]
[2] Cn1c(=O)c(-c2ccccc2Cl)cc2cnc(Nc3cccc(N4CCNCC4)c3)nc21 [UH15_33]
q: Which record would sort first by descending IC50, 1 or 2 ? Answer with the label corresponding to your selection.
a: 1

* * *

Molecular target: Recombinant RIPK2 protein (Homo sapiens)
Sequence (O43353 whole entry): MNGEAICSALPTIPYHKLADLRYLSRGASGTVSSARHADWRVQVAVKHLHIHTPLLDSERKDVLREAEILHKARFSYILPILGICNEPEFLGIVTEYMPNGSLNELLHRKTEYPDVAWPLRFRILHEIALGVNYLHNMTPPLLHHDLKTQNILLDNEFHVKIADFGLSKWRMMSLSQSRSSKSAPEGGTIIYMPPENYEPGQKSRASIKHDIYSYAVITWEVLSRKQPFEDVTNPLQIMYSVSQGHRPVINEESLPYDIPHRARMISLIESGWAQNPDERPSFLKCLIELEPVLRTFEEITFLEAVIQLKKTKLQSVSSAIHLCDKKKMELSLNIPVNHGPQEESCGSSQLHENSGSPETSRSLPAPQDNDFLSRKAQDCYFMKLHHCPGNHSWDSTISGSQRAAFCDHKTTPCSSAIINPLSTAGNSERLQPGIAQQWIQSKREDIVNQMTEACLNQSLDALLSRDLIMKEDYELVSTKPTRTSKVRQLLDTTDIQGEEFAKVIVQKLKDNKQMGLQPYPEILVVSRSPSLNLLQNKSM
Experiment: Receptor Interacting Protein Kinase 2 (RIPK2) enzyme assay (ADP-Glo)
Conditions: 2 h at room temperature
pIC50: −log10 of the molar value.
metric: pIC50

Use these answered entries as a reference point.
| molecule | test.target | pIC50 |
| --- | --- | --- |
| CS(=O)(=O)c1cccc(Nc2ncc3cc(-c4cccnc4)ccc3n2)c1 [UH15PN6] | Recombinant RIPK2 protein (Homo sapiens) | 7.60 |
| Cn1c(=O)c(-c2ccccc2Cl)cc2cnc(Nc3ccccn3)nc21 [UH15_35] | Recombinant RIPK2 protein (Homo sapiens) | 7.06 |
| CS(=O)(=O)c1cccc(Nc2ncc3cc(-c4ccccn4)ccc3n2)c1 [UH15PN5] | Recombinant RIPK2 protein (Homo sapiens) | 7.38 |
| Cn1c(=O)c(-c2ccccc2Cl)cc2cnc(Nc3cccc(N4CCNCC4)c3)nc21 [UH15_33] | Recombinant RIPK2 protein (Homo sapiens) | 7.67 |
| Cn1c(=O)c(-c2ccccc2Cl)cc2cnc(Nc3cccc(S(C)(=O)=O)c3)cc21 [UH15_32] | Recombinant RIPK2 protein (Homo sapiens) | 7.56 |
| CS(=O)(=O)c1cccc(Nc2ncc3cc(-c4ccccc4Cl)ccc3n2)c1 [UH15PN2] | Recombinant RIPK2 protein (Homo sapiens) | 7.52 |

[1] Cn1c(=O)c(-c2ccccc2Cl)cc2cnc(Nc3cccnc3)nc21 [UH15_34]
[2] CCN(CC)CCOc1ccc(Nc2ncc3cc(-c4ccccc4Cl)ccc3n2)cc1 [UH15PN1]
q: Which record would sort first by descending pIC50, 1 or 2 ? Answer with the label corresponding to your selection.
a: 2
(2: 7.66, 1: 7.45)
